- study-target: CDK7/CyclinH/Mat1 (Homo sapiens, UniProt P50613)
- Sequence (P50613 whole entry, species assumed): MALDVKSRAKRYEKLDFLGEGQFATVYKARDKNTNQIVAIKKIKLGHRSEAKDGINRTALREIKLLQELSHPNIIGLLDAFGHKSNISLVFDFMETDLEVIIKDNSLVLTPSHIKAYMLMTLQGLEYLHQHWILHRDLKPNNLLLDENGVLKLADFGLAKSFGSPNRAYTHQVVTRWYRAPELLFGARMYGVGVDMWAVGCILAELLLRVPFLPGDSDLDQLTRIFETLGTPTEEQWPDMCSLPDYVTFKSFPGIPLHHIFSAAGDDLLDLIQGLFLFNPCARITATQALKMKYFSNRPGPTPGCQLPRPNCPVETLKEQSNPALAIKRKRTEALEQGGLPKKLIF
- Sequence (P51946 whole entry partner, species assumed): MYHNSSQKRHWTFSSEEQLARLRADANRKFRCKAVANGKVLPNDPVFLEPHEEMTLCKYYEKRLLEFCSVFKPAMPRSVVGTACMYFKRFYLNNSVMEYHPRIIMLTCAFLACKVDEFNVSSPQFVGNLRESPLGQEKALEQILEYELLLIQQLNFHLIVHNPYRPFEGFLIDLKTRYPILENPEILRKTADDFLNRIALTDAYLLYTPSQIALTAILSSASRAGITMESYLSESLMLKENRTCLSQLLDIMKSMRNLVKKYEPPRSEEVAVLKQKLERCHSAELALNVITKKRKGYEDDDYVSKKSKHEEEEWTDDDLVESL
- Sequence (P51948 whole entry partner, species assumed): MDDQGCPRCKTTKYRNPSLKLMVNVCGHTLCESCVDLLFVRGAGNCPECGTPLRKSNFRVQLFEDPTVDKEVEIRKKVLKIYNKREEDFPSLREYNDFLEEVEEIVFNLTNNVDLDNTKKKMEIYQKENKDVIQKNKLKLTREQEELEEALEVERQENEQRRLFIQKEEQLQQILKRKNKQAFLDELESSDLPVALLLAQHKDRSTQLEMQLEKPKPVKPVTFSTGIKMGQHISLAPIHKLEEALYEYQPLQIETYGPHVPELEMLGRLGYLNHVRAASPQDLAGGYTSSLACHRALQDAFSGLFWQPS
- experimental-details: ADP Glo kinase assay, CDK7/CyclinH/Mat1
- conditions-used: Km ATP, read-out: Enzymatic inhibition, Ki, CDK7 H
pKi: −log10 of the molar value.
endpoint-label: pKi

test-smiles	study-target	reported-value
Fc1cnc(Nc2cccnc2)nc1-c1cnc2ccccn12	CDK7/CyclinH/Mat1 (Homo sapiens, UniProt P50613)	5.60
CN1CCN(c2ccc(Nc3nccc(-c4cnc5ccc(-c6ccccc6)cn45)n3)cn2)CC1	CDK7/CyclinH/Mat1 (Homo sapiens, UniProt P50613)	6.62
Fc1cnc(Nc2ccc(N3CCN(CCN4CCOCC4)CC3)nc2)nc1-c1cnc2ccc(-c3ccccc3)cn12	CDK7/CyclinH/Mat1 (Homo sapiens, UniProt P50613)	6.65
Cc1nc2ccc(F)cn2c1-c1ccnc(Nc2ccc(N3CCN(C)CC3)nc2)n1	CDK7/CyclinH/Mat1 (Homo sapiens, UniProt P50613)	6.25
c1ccc(-c2ccc3ncc(-c4ccnc(Nc5ccc(N6CCC6)nc5)n4)n3c2)cc1	CDK7/CyclinH/Mat1 (Homo sapiens, UniProt P50613)	6.53

1. CN1CCN(c2ccc(Nc3nccc(-c4cnc5ccc(Br)cn45)n3)cn2)CC1
2. CS(=O)(=O)N1CCN(c2ccc(Nc3nccc(-c4cnc5ccc(-c6cccs6)cn45)n3)cn2)CC1
Query block: Select one. Lower pKi: 1 or 2 Could you answer with the label of the item you picked?
Result block: 2
(2: 5.40, 1: 5.63)
